molecular target: Bla2 (Bacillus anthracis, UniProt Q93T40); test: biochemical; type: biochemical
Sequence (Q93T40 1-256): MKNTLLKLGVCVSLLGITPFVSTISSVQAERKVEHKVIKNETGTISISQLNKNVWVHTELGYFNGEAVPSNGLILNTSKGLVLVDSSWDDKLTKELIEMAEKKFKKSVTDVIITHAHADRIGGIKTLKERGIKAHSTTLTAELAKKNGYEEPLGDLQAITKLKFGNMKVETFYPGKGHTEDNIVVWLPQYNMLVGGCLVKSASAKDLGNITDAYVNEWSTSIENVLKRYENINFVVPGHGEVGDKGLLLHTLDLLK
ASSAY ENDPOINT: IC50

* O=C(CCCCCCC(=O)Nc1ccccc1)NO [SAHA, suberoylanilide hydroxamic acid, reference compound] | > 100 µM
